Target or system Voltage-gated inwardly rectifying potassium channel KCNH2 (Homo sapiens, UniProt Q12809); recorded quantity IC50.
Please reply with the bare figure in µM and do not write the unit itself.

Completed entries (count: 2):
- compound: "CC(=O)c1cn(-c2ccc(F)cc2)c2ccc(Cl)cc12"
  IC50 [µM]: 10
- compound: "CC(C)c1cn(-c2ccc(F)cc2)c2ccc(Cl)cc12"
  IC50 [µM]: 10

Moving on to another compound below.
input: Given the compound COC(=O)C1=C(C)NC(C)=C(C(=O)OC(C)C)C1c1cccc2nonc12 (stereo not drawn) , write its reported IC50.
output: 50.1

---

The next entries give measured log10(IC50) for Voltage-gated inwardly rectifying potassium channel KCNH2 (Homo sapiens).
Lab note - IC50 converted to log10 from values in µM.

Please review the following examples before continuing.
- smiles-entry: "O=C1NCCN1CCN1CCC(c2cn(-c3ccc(F)cc3)c3ccccc23)CC1"
  quantity-kind: "log10(IC50)"
  recorded-number: -2.16
- smiles-entry: "CCOP(=O)(Sc1ccccc1)Sc1ccccc1"
  quantity-kind: "log10(IC50)"
  recorded-number: 1.70
- smiles-entry: "Fc1ccc(-n2cc(C3CCN(CCN4CCN=C4S)CC3)c3ccccc32)cc1"
  quantity-kind: "log10(IC50)"
  recorded-number: -2.21
- smiles-entry: "O=C1CCC(c2ccc(Nc3ccncc3)cc2)=NN1"
  quantity-kind: "log10(IC50)"
  recorded-number: 0.02

Now, please, on to the next compound.
input: Please respond with reported log10(IC50) (system Voltage-gated inwardly rectifying potassium channel KCNH2 (Homo sapiens)) for "CCCCN1CCCC[C@H]1C(=O)Nc1c(C)cccc1C" .
output: 1.32

Data credit: ChEMBL document CHEMBL1671772
